- experiment notes: Cytotoxicity against human SH-SY5Y cells assessed as cell viability at 1 uM measured after 24 hrs by calcein-AM staining based fluorescence analysis
- measurement context: read-out: Activity
attribute measured: viability at 24 h, 1 µM (%)
Give bare numbers, in %.

Answered examples (2):
**Q:** Give its viability at 24 h, 1 µM value. Item: CC(=O)OC[C@H]1O[C@@H](n2cc(CO)nn2)[C@H](OC(C)=O)[C@@H](OC(C)=O)[C@H]1OC(C)=O
**A:** 107

**Q:** Give its viability at 24 h, 1 µM value. Item: C=C(C(=O)OCc1cn([C@@H]2O[C@H](COC(C)=O)[C@@H](OC(C)=O)[C@H](OC(C)=O)[C@H]2OC(C)=O)nn1)[C@@H]1CC[C@]2(COC(C)=O)CC[C@]3(C)[C@H](CC[C@@H]4[C@@]5(C)CC[C@H](OC(C)=O)C(C)(C)[C@@H]5CC[C@]43C)[C@@H]12
**A:** 138

Please turn your attention to the following entry.
**Q:** Give its viability at 24 h, 1 µM value. Item: C=C(Cn1cc(-c2cccnc2)nn1)[C@@H]1CC[C@]2(C(=O)O)CC[C@]3(C)[C@H](CC[C@@H]4[C@@]5(C)CC[C@H](OC(C)=O)C(C)(C)[C@@H]5CC[C@]43C)[C@@H]12
**A:** 124
